protocol: qHTS assay for MDR1-selective chemotherapeutics: Primary screen using the drug-selected MDR subline cells KB-V1; further: nearly all actives have a fitted effect of over 60% in size
condition-summary: KB-V1 MDR cells viability, CellTiter-Glo, 72 h; series mostly up to 46.1 µM
Description: A prime difficulty in effectively treating cancer is the development of cellular resistance to multiple structurally unrelated anticancer drugs, a phenomenon known as multidrug resistance (MDR). […] Numerous strategies to overcome P-gp-mediated MDR have been explored, including the design of drugs that evade recognition and efflux, and development of inhibitors to block efflux and restore drug accumulation. […]
The campaign covered roughly 400,000 compounds. About 13,000 (3.2%) were called active. Roughly 18% stayed inconclusive and do not appear here. The call rests on the fitted dose curve; in most records, active means well fitted cell-killing curve with a large enough effect; inconclusive means small, poorly fitted or top-dose-only effect, or effect the other way; inactive means flat fitted curve, though single readings scatter. The full list was thinned out, with actives kept by preference.
Outcome codes: true (1) = active, false (0) = inactive

In [3]: df
Out[3]:
                                   molecule  group_label
0            CC(=O)Nc1cnc(-c2ccc(O)cc2C)cn1    false (0)
1  O=C(CSc1nnc2scc(-c3ccc(F)cc3)n12)NCc1ccco1    false (0)
2  COc1ccc2[nH]c3c(C)c4cc[n+](C)cc4c(C)c3c2c1    false (0)
3    Cn1c(-c2ccc(F)cc2)cnc1SCC(=O)NCc1ccco1    false (0)
4                COc1ccc2[nH]c(=S)cc(C)c2c1     true (1)
5  CCC(C(=O)OCC(=O)Nc1ccccc1-c1ccccc1)c1ccccc1 (stereo unspecified)    false (0)
